# Tested on: Echinochloa crus-galli
# Assay: Test Example 2: herbicidal effect test by treatment during growing period in paddy rice cultivation (seven days after seeding)
# Assay type: in vivo
# Assay setup: 120 g/10a active ingredient, assessed 14 days after treatment, dry weight vs untreated area
Field: Herbicidal rate (%) Echinochloa crus-galli. Provide a value for each of the compounds that follow.
Number plus unit, in that order.

q: What Herbicidal rate (%) Echinochloa crus-galli value was documented for this compound, COCC(C)n1oc(=O)c(Cc2ccccc2N(C(=O)C(C)C)S(=O)(=O)C(F)(F)F)c1C (stereo not drawn) ?
a: 90%

q: Also CCCC(C)n1oc(=O)c(Cc2ccccc2NS(=O)(=O)C(F)(F)F)c1C (stereo not drawn) ?
a: 90%

q: Input Cc1c(Cc2ccccc2NS(=O)(=O)C(F)(F)F)c(=O)on1C(C)C
a: 90%

q: Likewise for Cc1c(Cc2ccccc2N(S(=O)(=O)C(F)(F)F)S(=O)(=O)C(F)(F)F)c(=O)on1C(C)c1ccc(F)cc1F (stereo not drawn) ?
a: 90%

q: Same thing, different compound: CC(=O)N(c1ccccc1Cc1c(C)n(C(C)c2ccccc2)oc1=O)S(=O)(=O)C(F)(F)F (stereo not drawn)
a: 90%

q: Also CCC(CC)n1oc(=O)c(Cc2ccccc2NS(=O)(=O)C(F)(F)F)c1C , if possible.
a: 90%

q: What would you report for Cc1c(Cc2ccccc2NS(=O)(=O)C(F)(F)F)c(=O)on1CCCl ?
a: 60%

q: Do the same for Cc1c(Cc2ccccc2NS(=O)(=O)C(F)(F)F)c(=O)on1CC(C)c1ccccc1 (stereo not drawn) please
a: 90%

q: Query Cc1c(Cc2ccccc2N(S(=O)(=O)C(F)(F)F)S(=O)(=O)C(F)(F)F)c(=O)on1C(C)Cc1ccccc1 (stereo not drawn) next
a: 90%

q: Next compound: CCN(CC)C(=O)n1oc(=O)c(Cc2ccccc2NS(=O)(=O)C(F)(F)F)c1C
a: 40%

q: Continue with Cc1c(Cc2ccccc2N(S(=O)(=O)C(F)(F)F)S(=O)(=O)C(F)(F)F)c(=O)on1Cc1ccccc1
a: 40%

q: Next: Cc1c(Cc2ccccc2NS(=O)(=O)C(F)(F)F)c(=O)on1Cc1ccc(F)cc1Cl
a: 40%

q: Follow-up item: COCC(C)n1oc(=O)c(Cc2ccccc2N(C(=O)C2CCCCC2)S(=O)(=O)C(F)(F)F)c1C (stereo not drawn)
a: 90%

q: // next record Cc1c(Cc2ccccc2N(S(=O)(=O)C(F)(F)F)S(=O)(=O)C(F)(F)F)c(=O)on1Cc1ccc(F)c(F)c1
a: 40%

q: How about Cc1c(Cc2ccccc2NS(=O)(=O)C(F)(F)F)c(=O)on1C ?
a: 90%

The reported numbers originate from patent US11109593B2.
